Parameter UV εmax: see the listing below.
ASSAY NOTES: UV absorption spectrum in water
Type: physicochemical
MEASUREMENT CONTEXT: at λmax
READOUT: UV εmax (L/mol/cm)

> print(dat)
                                   compound  readout  unit.name  measured.result
1  Nc1ccc(C=C(C(=O)O)C(=O)O)cc1 [Example 2]  UV εmax   L/mol/cm            16800
2  Nc1ccc(C=C(C(=O)O)C(=O)O)cc1 [Example 1]  UV εmax   L/mol/cm            16800
3        CC(=O)Nc1ccc(C=C(C(=O)O)C(=O)O)cc1  UV εmax   L/mol/cm            16200
4  Nc1ccc(C=C(C(=O)O)C(=O)O)cc1 [Example 3]  UV εmax   L/mol/cm            14000

* * *

ASSAY NOTES: UV absorption spectrum in water
Type: physicochemical
Parameter UV λmax: see the listing below.
READOUT: UV λmax

> print(dat)
                                   molecule  readout  measured.result
1  Nc1ccc(C=C(C(=O)O)C(=O)O)cc1 [Example 1]  UV λmax           305 nm
2  CC(=O)Nc1ccc(C=C(C(=O)O)C(=O)O)cc1 [Example 4]  UV λmax           292 nm
3  Nc1ccc(C=C(C(=O)O)C(=O)O)cc1 [Example 3]  UV λmax           306 nm
4  Nc1ccc(C=C(C(=O)O)C(=O)O)cc1 [Example 2]  UV λmax           305 nm

* * *

ASSAY NOTES: UV absorption spectrum in water
Assay type: physicochemical
MEASUREMENT CONTEXT: at λmax
READOUT: UV E1%

> print(dat)
                                   compound  measured.result
1  Nc1ccc(C=C(C(=O)O)C(=O)O)cc1 [Example 3]              496
2  Nc1ccc(C=C(C(=O)O)C(=O)O)cc1 [Example 2]              670
3  Nc1ccc(C=C(C(=O)O)C(=O)O)cc1 [Example 1]              446
4  CC(=O)Nc1ccc(C=C(C(=O)O)C(=O)O)cc1 [Example 4]              498
